STUDY SYSTEM: T1, Human Nectin-4 (human, UniProt Q96NY8 32-349, limits assumed)
T1 construct: Protein immobilised on the SPR chip; also called target protein
T1 sequence: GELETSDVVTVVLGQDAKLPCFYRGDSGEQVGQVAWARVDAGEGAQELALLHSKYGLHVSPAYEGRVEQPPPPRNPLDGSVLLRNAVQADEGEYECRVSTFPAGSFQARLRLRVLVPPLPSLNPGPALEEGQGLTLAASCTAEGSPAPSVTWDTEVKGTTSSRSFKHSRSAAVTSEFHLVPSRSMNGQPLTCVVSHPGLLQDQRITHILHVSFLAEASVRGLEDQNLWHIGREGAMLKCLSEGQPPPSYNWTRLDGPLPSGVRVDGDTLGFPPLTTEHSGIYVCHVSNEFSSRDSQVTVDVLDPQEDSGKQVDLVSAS
EXPERIMENT SUMMARY: Table 2B (DELFIA or SPR)
Bridges are numbered along the chain shown (N, C = ends). Primed or numbered codes have the meaning given here. Where no end group is shown, it is not given here. The star is where a group is joined. DOTA = O=C(O)CN1CCN(CC(=O)O)CCN(CC(=O)*)CCN(CC(=O)O)CC1; Biotin = O=C1N[C@H]2[C@H](CS[C@H]2CCCCC(=O)*)N1; PEG4″ = 4(ethylene glycol); PEG12′ = not defined here
PROPERTY LABEL: Kd (nM)
Only the number, expressed in nM, is required.

> print(dat)
                                     binder  property.label  quantitative.readout
1  {Biotin-PEG4″}-CDYDEEFFTALARLRGGDICEYIQAKFQYLPGLCIEEILDNLGCS (designed binder, disulfide 1-34, 20-44) [C141]              Kd                  0.64
2  {DOTA-PEG12′}-CEYDEEFFAGLKRLRGGDICYYIKKKFDKVPDLCIEEILDKLGC-OH (designed binder, disulfide 1-34, 20-44) [C51]              Kd                  8.37

Consider the binder shown here: {Biotin-PEG4″}-CDYDEEFFTALKRLRGGDICSYIQASFQYLPGLCIEEILDNLGCS-OH (designed binder, disulfide 1-34, 20-44) [C189] What is its recorded Kd?
1.1
